Tested on: RSK2(Kin.Dom.2-C-terminal);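 note: kd values determined as follow-up on hits from a single-replicate KINOMEscan panel screen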
Construct: gene RPS6KA3
pKd: −log10 of the molar value.
quantity measured: pKd

The reported pKd of the molecule COc1ccc(Nc2nccc(N3CCC(NC(=O)C(C)c4ccc(Cl)cc4)CC3)n2)cc1 (stereo not shown) [GSK1379812] was < 5.00

====

Tested on: ABL2
assay context: concentration: 1 μM, replicates: in singlicate; n = 1
Field: %Inh. Provide a value for each of the compounds that follow.
One number for each entry, in %.

Completed entries (count: 4):
compound: COC(=O)c1cccc(NC(=O)NC2CCN(c3ccnc(Nc4ccc(F)cc4)n3)C2)c1 (centres unmarked) [GSK1379725]
tested system: ABL2
value measured: 5
--
compound: COc1cccc(NC(=O)Nc2ccc(C)c(-c3ccc(C(=O)Nc4ccncc4)cc3)c2)c1 [GSK1398474]
tested system: ABL2
value measured: 21
--
compound: Cc1ccccc1-c1cc(-c2c[nH]nc2-c2ccccn2)ccn1 [GW680061]
tested system: ABL2
value measured: 17
--
compound: CC(C)c1cc(-c2ccc3c(N)n[nH]c3c2)nc(N)n1 [GSK2250882]
tested system: ABL2;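 note: KINOMEscan kinase panel screen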
value measured: 13

Please look at the items below and tell me %Inh for each one, in order.
1. Nc1ncnc2occ(-c3ccc4c(c3)CCN4C(=O)Cc3cc(F)ccc3F)c12 [GSK2645446]
2. O=C(Nc1n[nH]c2nc(-c3cccs3)c(Br)cc12)C1CC1 [SB-735297]
3. Cc1cccc2c(-c3ccncn3)c(-c3ccc(F)cc3)nn12 [GW515532]
4. CC(=O)c1c(C)c2cnc(Nc3ccc(N4CCNCC4)cn3)nc2n(C2CCCC2)c1=O

Solution:
13
0
2
0
